B1: tRNA (parent)
chain: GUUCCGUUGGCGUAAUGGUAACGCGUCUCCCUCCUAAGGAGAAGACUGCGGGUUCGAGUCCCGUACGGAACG

variants of: B1; test: yeast fitness relative to wild type (ratio to wild type); higher = fitter; tRNA-Arg(CCU), competitive growth, 37 C, YPD
Variants at the floor of the assay were thinned out.
Entries and their measured yeast fitness follow.
Respond with the number and no other words.

Please review the entries below; each comes with its answer.
mutation string: U2A A57U
yeast fitness: 0.663
//
mutation string: C29U U32A A69U
yeast fitness: 0.6
//
mutation string: C31U G41A A69U
yeast fitness: 0.808

Request: Which yeast fitness is listed for U7A C24U C46A ?
Result: 0.567

Request: Which yeast fitness reading was recorded for the variant U3A C46G C49U G56C ?
Result: 0.734

Request: # yeast fitness lookup, item U47A C61U A70C
Result: 0.558

Request: What yeast fitness value was documented for this variant, C5U A21G G39C ?
Result: 0.515
